molecular target: hARH3 (Homo sapiens); construct: made in house; host or cells: E. coli Rosetta (DE3); experiment: Differential scanning fluorimetry (DSF) with metal salts, MgII-depleted enzyme; assay type: binding; conditions: DSF, rounded; read-out: Kd of magnesium on its own

molecule | Kd
[Mg+2] [MgCl2, Magnesium chloride hexahydrate] | ~5.4 mM

###

molecular target: hARH3 (Homo sapiens); construct: made in house; host or cells: E. coli Rosetta (DE3); assay: Differential scanning fluorimetry (DSF) with metal salts, MgII-depleted enzyme; type: binding; details: 100 μM metal salt; ΔTM = TM (salt) - TM (apo)

compound | unit of measure | ΔTM
O.O.O.O.O.O.[Cl][Cr]([Cl])[Cl] [CrCl3, Chromium(III) chloride hexahydrate] | °C | −0.3
[Mg+2] [MgCl2, Magnesium chloride hexahydrate] | °C | 0.0
O.O.O.O.O.O.[Cl-].[Cl-].[Co+2] [CoCl2, Cobalt(II) chloride hexahydrate] | °C | 0.0
[Cl-].[Li+] [LiCl, Lithium chloride] | °C | −0.1
O.O.O.O.O.O.[Cl][Ni][Cl] [NiCl2, Nickel(II) chloride hexahydrate] | °C | −0.3

###

pIC50: −log10 of the molar value.
Observed pIC50 values for hARH1 (Homo sapiens) are listed in what follows.

molecule | pIC50
Nc1ncnc2c1ncn2C1OC(COP(=O)(O)OP(=O)(O)OCC2CC(O)CN2)C(O)C1O (centres unmarked) [ADP-HPM] | 3.79
Nc1ncnc2c1ncn2C1OC(COP(=O)(O)OP(=O)(O)OCC2OC(O)C(O)C2O)C(O)C1O (centres unmarked) [ADPr, ADP-ribose] | 3.64

###

biological target: LchARH3 (Latimeria chalumnae); construct: LchARH3 (GenBank: XP_005988572; aa residues 10-362); made in house; host or cells: E. coli Rosetta (DE3); assay: biochemical; format: binding; settings: 100 μM metal salt; ΔTM = TM (salt) - TM (apo)
reported endpoint: ΔTM (°C)

molecule | unit of measure | result value
O.O.O.O.O.O.[Cl][Ni][Cl] [NiCl2, Nickel(II) chloride hexahydrate] | °C | 0.5
O.O.O.O.O.O.[Cl][Cr]([Cl])[Cl] [CrCl3, Chromium(III) chloride hexahydrate] | °C | −0.1

###

Molecular target: LchARH3 (Latimeria chalumnae, UniProt H3BCW1)
Construct: LchARH3 (GenBank: XP_005988572; aa residues 10-362); made in house; host or cells: E. coli Rosetta (DE3)
Sequence (H3BCW1 10-356 limits assumed): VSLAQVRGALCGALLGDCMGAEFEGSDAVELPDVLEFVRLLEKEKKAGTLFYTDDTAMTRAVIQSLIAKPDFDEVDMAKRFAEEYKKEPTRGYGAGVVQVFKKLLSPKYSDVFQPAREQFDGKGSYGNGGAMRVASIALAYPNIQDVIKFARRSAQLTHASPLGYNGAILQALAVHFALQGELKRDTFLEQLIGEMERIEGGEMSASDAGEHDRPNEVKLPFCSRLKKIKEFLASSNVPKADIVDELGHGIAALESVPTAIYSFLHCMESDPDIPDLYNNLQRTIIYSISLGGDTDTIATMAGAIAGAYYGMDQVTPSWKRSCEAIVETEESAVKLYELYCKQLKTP
Test: biochemical
Assay type: binding
Conditions: 100 μM metal salt; ΔTM = TM (salt) - TM (apo)
ΔTM listing for selected compounds.
reported endpoint: ΔTM (°C)

compound | unit of measure | result value
[Cl-].[Li+] [LiCl, Lithium chloride] | °C | −0.1
O.O.O.O.O.O.[Cl-].[Cl-].[Co+2] [CoCl2, Cobalt(II) chloride hexahydrate] | °C | −0.6

###

target: hARH3 (Homo sapiens, UniProt Q9NX46)

compound | unit of measure | Ki
Nc1ncnc2c1ncn2C1OC(COP(=O)(O)OP(=O)(O)OCC2OC(O)C(O)C2O)C(O)C1O (stereo not shown) [ADPr, ADP-ribose] | nM | 1080

###

In this section, each of the molecules is paired with its reported Kd.
target: LchARH3 (Latimeria chalumnae); construct: LchARH3 (GenBank: XP_005988572; aa residues 10-362); made in house; host or cells: E. coli Rosetta (DE3); test: biochemical; type: binding; settings: DSF, 16 metal salt dilutions, single-site ligand-binding model; triplicate ± SD; read-out: Kd

molecule | Kd [µM]
[Ca+2] [CaCl2, Calcium chloride dehydrate] | 431
[Mg+2] [MgCl2, Magnesium chloride hexahydrate] | 2300

###

target: LchARH3 (Latimeria chalumnae, UniProt H3BCW1); construct: LchARH3 (GenBank: XP_005988572; aa residues 10-362); made in house; host or cells: E. coli Rosetta (DE3); assay: biochemical; type: binding; settings: 100 μM metal salt; n = 6
The reader will find reported TM values listed item by item below.

compound | system name | TM [°C]
[Cl][Cu][Cl] [CuCl2, Copper(II) chloride] | LchARH3 (Latimeria chalumnae, UniProt H3BCW1) | 39.0
O.O.O.O.O.O.[Cl][Cr]([Cl])[Cl] [CrCl3, Chromium(III) chloride hexahydrate] | LchARH3 (Latimeria chalumnae, UniProt H3BCW1) | 40.1
O.O.O.O.O.O.[Cl-].[Cl-].[Co+2] [CoCl2, Cobalt(II) chloride hexahydrate] | LchARH3 (Latimeria chalumnae, UniProt H3BCW1) | 39.6
[Cl-].[Li+] [LiCl, Lithium chloride] | LchARH3 (Latimeria chalumnae, UniProt H3BCW1) | 40.1
O.O.O.O.O.O.[Cl][Ni][Cl] [NiCl2, Nickel(II) chloride hexahydrate] | LchARH3 (Latimeria chalumnae, UniProt H3BCW1) | 40.7

###

Biological target: hARH3 (Homo sapiens)
Construct: made in house; host or cells: E. coli Rosetta (DE3)
Sequence (Q9NX46 1-363): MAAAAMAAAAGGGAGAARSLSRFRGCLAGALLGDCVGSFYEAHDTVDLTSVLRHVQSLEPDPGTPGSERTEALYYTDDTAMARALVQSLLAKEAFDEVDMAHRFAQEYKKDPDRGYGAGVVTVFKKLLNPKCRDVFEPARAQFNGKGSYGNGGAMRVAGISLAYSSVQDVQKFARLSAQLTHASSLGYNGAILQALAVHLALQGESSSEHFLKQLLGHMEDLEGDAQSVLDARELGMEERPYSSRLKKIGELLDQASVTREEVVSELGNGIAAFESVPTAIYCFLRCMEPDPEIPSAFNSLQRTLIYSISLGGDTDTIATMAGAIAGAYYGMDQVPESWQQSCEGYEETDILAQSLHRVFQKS
Assay: Differential scanning fluorimetry (DSF) with metal salts, MgII-depleted enzyme
Assay type: binding
Settings: 100 μM metal salt; ΔTM = TM (salt) - TM (apo)
Marks after values point to notes of the source that are not given here.

molecule | ΔTM
[Cl][Cu][Cl] [CuCl2, Copper(II) chloride] | −6.2 ^d °C
[Cl-].[Cl-].[Zn+2] [ZnCl2, Zinc chloride] | −2.6 ^d °C
[Ca+2] [CaCl2, Calcium chloride dehydrate] | 3.4 ^d °C

###

Target: LchARH3 (Latimeria chalumnae)
Construct: LchARH3 (GenBank: XP_005988572; aa residues 10-362); made in house; host or cells: E. coli Rosetta (DE3)
Sequence (H3BCW1 10-356 limits assumed): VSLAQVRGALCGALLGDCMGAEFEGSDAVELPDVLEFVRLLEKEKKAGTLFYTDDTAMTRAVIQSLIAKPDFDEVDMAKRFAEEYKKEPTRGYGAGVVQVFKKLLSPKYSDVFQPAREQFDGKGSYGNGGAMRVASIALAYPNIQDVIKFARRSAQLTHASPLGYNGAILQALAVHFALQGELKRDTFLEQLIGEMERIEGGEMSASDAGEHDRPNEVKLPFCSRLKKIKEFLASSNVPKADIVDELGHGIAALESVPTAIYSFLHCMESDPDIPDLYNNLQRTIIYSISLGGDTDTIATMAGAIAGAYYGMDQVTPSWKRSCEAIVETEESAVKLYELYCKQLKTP
Experiment: biochemical
Type: binding
Details: 100 μM metal salt; ΔTM = TM (salt) - TM (apo)
Marks after values point to notes of the source that are not given here.

compound | ΔTM
[Cl-].[Cl-].[Zn+2] [ZnCl2, Zinc chloride] | −2.8 ^d °C
[Ca+2] [CaCl2, Calcium chloride dehydrate] | 4.2 ^d °C
[Mg+2] [MgCl2, Magnesium chloride hexahydrate] | 1.3 ^d °C
